# system: HLA-C*03:03
# assayMethodText: IEDB peptide-MHC binding, purified MHC/direct/fluorescence; filed as Kd, often an IC50 or EC50 that approximates it; bounds were set here for any values at or beyond the usual limits of such assays
# testParameters: source organism: Bacillus anthracis str. A2012
pKd: −log10 of the molar value.
quantityMeasured: pKd

1. SMFDSWGPF
≤ 4.70

====

# system: HLA-A*11:01
# assayMethodText: IEDB peptide-MHC binding, purified MHC/competitive/fluorescence; bounds were set here for any values at or beyond the usual limits of such assays
# testParameters: source organism: Zaire ebolavirus
quantityMeasured: log10 of IC50 (log10 of the value in µM)

1. KAIDFLLQR
-0.16
2. PLARTAKVK
1.68
3. ISNSVAQAR
1.69
4. LSGVNNLEH
0.70
5. RTFSIPLGV
0.21

====

# system: HLA-A*23:01
# assayMethodText: IEDB peptide-MHC binding, purified MHC/competitive/radioactivity; filed as Kd, often an IC50 or EC50 that approximates it; bounds were set here for any values at or beyond the usual limits of such assays
# testParameters: source organism: Dengue virus 1 Brazil/97-11/1997
quantityMeasured: Kd (nM)

1) FQYSDRRWCF
272

====

# system: HLA-B*18:01
# assayMethodText: IEDB peptide-MHC binding, purified MHC/competitive/fluorescence; filed as Kd, often an IC50 or EC50 that approximates it; bounds were set here for any values at or beyond the usual limits of such assays
# testParameters: source organism: Homo sapiens
pKd: −log10 of the molar value.
quantityMeasured: pKd

1) RTDNGGWAH
≤ 4.70

====

# system: HLA-A*23:01
# assayMethodText: IEDB peptide-MHC binding, purified MHC/competitive/radioactivity; filed as Kd, often an IC50 or EC50 that approximates it; bounds were set here for any values at or beyond the usual limits of such assays
# testParameters: source organism: Mammarenavirus tacaribeense
quantityMeasured: Kd (µM)

1) YCDPKRFFL
7.53

====

# system: HLA-A*02:19
# assayMethodText: IEDB peptide-MHC binding, purified MHC/direct/fluorescence; filed as Kd, often an IC50 or EC50 that approximates it; bounds were set here for any values at or beyond the usual limits of such assays
# testParameters: source organism: Salmonella enterica subsp. enterica serovar Typhimurium str. LT2
quantityMeasured: Kd (µM)

1. MGKTITDVK
6

====

# system: HLA-B*08:02
# assayMethodText: IEDB peptide-MHC binding, purified MHC/direct/fluorescence; filed as Kd, often an IC50 or EC50 that approximates it; bounds were set here for any values at or beyond the usual limits of such assays
# testParameters: source organism: dengue virus type 4
pKd: −log10 of the molar value.
quantityMeasured: pKd

1. FRKKRLTIM
5.35

====

# system: HLA-B*57:01
# assayMethodText: IEDB peptide-MHC binding, purified MHC/direct/fluorescence; filed as Kd, often an IC50 or EC50 that approximates it; bounds were set here for any values at or beyond the usual limits of such assays
# testParameters: source organism: Vibrio vulnificus
quantityMeasured: Kd

1. PHPVVVRTL
≥ 20 µM

====

# system: HLA-A*03:01
# assayMethodText: IEDB peptide-MHC binding, purified MHC/direct/fluorescence; filed as Kd, often an IC50 or EC50 that approximates it; bounds were set here for any values at or beyond the usual limits of such assays
# testParameters: source organism: Camelpox virus M-96
quantityMeasured: Kd (µM)

1) ATNDGLIKK
1.46
2) RVYNNTARY
0.0507
3) LTFLHTLYK
0.16

====

# system: HLA-B*27:05
# assayMethodText: IEDB peptide-MHC binding, purified MHC/direct/fluorescence; filed as Kd, often an IC50 or EC50 that approximates it; bounds were set here for any values at or beyond the usual limits of such assays
# testParameters: source organism: Vibrio vulnificus
quantityMeasured: Kd

1) PHPVVVRTL
≥ 20 µM

====

# system: HLA-A*24:03
# assayMethodText: IEDB peptide-MHC binding, purified MHC/direct/fluorescence; filed as Kd, often an IC50 or EC50 that approximates it; bounds were set here for any values at or beyond the usual limits of such assays
# testParameters: source organism: Mycobacterium tuberculosis
quantityMeasured: Kd (nM)

1) QYDVPMVSF
18.4

====

# system: HLA-B*15:01
# assayMethodText: IEDB peptide-MHC binding, purified MHC/competitive/radioactivity; filed as Kd, often an IC50 or EC50 that approximates it; bounds were set here for any values at or beyond the usual limits of such assays
# testParameters: source organism: Vaccinia virus WR
# Kd per entry
quantityMeasured: Kd (nM)

1. RIIPKNNHA
444
2. KIRCEITSF
4.28
3. ELRDYFEQI
2190
4. YNNFYFYSF
1460
5. GAIDLCRHF
117
6. KAYLYTEYF
7.64
7. ERRYVNVHF
7380
8. SEIRWEESF
46.9
9. FSHDHIGHG
31.9
10. KEYCVECYM
4620

====

# system: HLA-C*06:02
# assayMethodText: IEDB peptide-MHC binding, purified MHC/direct/fluorescence; filed as Kd, often an IC50 or EC50 that approximates it; bounds were set here for any values at or beyond the usual limits of such assays
# testParameters: source organism: Bacillus mycoides KBAB4
pKd: −log10 of the molar value.
quantityMeasured: pKd

1) FAFCRITSF
5.97

====

# system: HLA-B*08:01
# assayMethodText: IEDB peptide-MHC binding, purified MHC/direct/fluorescence; filed as Kd, often an IC50 or EC50 that approximates it; bounds were set here for any values at or beyond the usual limits of such assays
# testParameters: source organism: Corynebacterium glutamicum
pKd: −log10 of the molar value.
quantityMeasured: pKd

1. WPALSSIAA
5.89

====

# system: HLA-A*02:11
# assayMethodText: IEDB peptide-MHC binding, purified MHC/direct/fluorescence; filed as Kd, often an IC50 or EC50 that approximates it; bounds were set here for any values at or beyond the usual limits of such assays
# testParameters: source organism: Entamoeba histolytica HM-1:IMSS
pKd: −log10 of the molar value.
quantityMeasured: pKd

1. IESNPLFPV
≤ 4.70

====

# system: HLA-A*02:19
# assayMethodText: IEDB peptide-MHC binding, purified MHC/direct/fluorescence; filed as Kd, often an IC50 or EC50 that approximates it; bounds were set here for any values at or beyond the usual limits of such assays
# testParameters: source organism: Araucaria virus
quantityMeasured: Kd

1) AQKLATKPV
≥ 20 µM

====

# system: HLA-A*26:01
# assayMethodText: IEDB peptide-MHC binding, purified MHC/competitive/radioactivity; filed as Kd, often an IC50 or EC50 that approximates it; bounds were set here for any values at or beyond the usual limits of such assays
# testParameters: source organism: Lassa virus GA391
quantityMeasured: Kd

1) YCNYSRYWY
≥ 77.9 µM

====

# system: HLA-A*03:01
# assayMethodText: IEDB peptide-MHC binding, purified MHC/competitive/radioactivity; filed as Kd, often an IC50 or EC50 that approximates it; bounds were set here for any values at or beyond the usual limits of such assays
# testParameters: source organism: Dengue virus 1 Singapore/S275/1990
quantityMeasured: Kd (nM)

1. LAMGIMILK
26.3

====

# system: HLA-B*46:01
# assayMethodText: IEDB peptide-MHC binding, purified MHC/direct/fluorescence; filed as Kd, often an IC50 or EC50 that approximates it; bounds were set here for any values at or beyond the usual limits of such assays
# testParameters: source organism: dengue virus type 4
pKd: −log10 of the molar value.
quantityMeasured: pKd

1) RTWAYHGSY
≤ 4.70

====

# system: HLA-A*30:01
# assayMethodText: IEDB peptide-MHC binding, purified MHC/competitive/fluorescence; filed as Kd, often an IC50 or EC50 that approximates it; bounds were set here for any values at or beyond the usual limits of such assays
# testParameters: source organism: Human immunodeficiency virus 1
quantityMeasured: Kd

1. RSLYNTVAVLY
≥ 20 µM

====

Kd reference
# system: HLA-A*26:01
# assayMethodText: IEDB peptide-MHC binding, purified MHC/competitive/radioactivity; filed as Kd, often an IC50 or EC50 that approximates it; bounds were set here for any values at or beyond the usual limits of such assays
# testParameters: source organism: Mammarenavirus machupoense
quantityMeasured: Kd

1. CTNFKTQLV
13.2 µM
2. YKELCDAVY
≥ 77.9 µM
3. QCGDPSSFEY
≥ 69.7 µM

====

# system: HLA-B*08:03
# assayMethodText: IEDB peptide-MHC binding, purified MHC/direct/fluorescence; filed as Kd, often an IC50 or EC50 that approximates it; bounds were set here for any values at or beyond the usual limits of such assays
# testParameters: source organism: Variola virus
quantityMeasured: Kd

1) ATNDGLIKK
≥ 20 µM

====

# system: HLA-A*02:19
# assayMethodText: IEDB peptide-MHC binding, purified MHC/direct/fluorescence; filed as Kd, often an IC50 or EC50 that approximates it; bounds were set here for any values at or beyond the usual limits of such assays
# testParameters: source organism: Vibrio parahaemolyticus AQ3810
quantityMeasured: Kd

1) EPFLVQFWI
≥ 20 µM

Source of measurements: the Immune Epitope Database (IEDB)
